Source listed as PubChem BioAssay.

- System: TRPC4 beta (transient receptor potential cation channel C4), mouse
- assay explanation: potentiation of DAMGO EC20 TRPC4 response – cell-based, Fluo-4, HEK293 TRPC4beta/mu-opioid, confirmation (AID 2555)
- stated conditions: DAMGO EC20, Fluo-4 calcium flux, at 10 µM; stronger effect = higher value
The source made the active and inactive calls.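 The calls were made as follows: active = primary screen hit whose calcium fluorescence ratio, in both repeats, exceeds the weak agonist control mean by 3 SD; inactive = the rest.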
measured endpoint: potentiation

1) O=C(CN1CCN(c2ncc(C(F)(F)F)cc2Cl)CC1)N1CCN(c2ncc(C(F)(F)F)cc2Cl)CC1	inactive
2) CN(C)S(=O)(=O)N1CCC(CCCC2CCN(S(=O)(=O)N(C)C)CC2)CC1	11% (active)
3) S=C(NCCc1ccccn1)NC1CCCCC1	inactive

* * *

- System: TRPC4 beta (transient receptor potential cation channel C4), mouse
- assay explanation: TRPC4 cation channel opening, retest – cell-based, Fluo4 calcium, HEK293 TRPC4beta/mu-opioid, duplicates, 10 µM, confirmation (AID 2426)
- stated conditions: Fluo4 calcium fluorescence, at 10 µM
Activity calls are given as the source filed them.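 The calls were made as follows: active = fluorescence ratio normalized to control raised more than 50% in primary screen plus both repeat runs; inactive = the rest.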
Choose the fitting class; nothing outside 1.0 (active), 0.0 (inactive) is accepted.

1) C/C(N)=C(/C#N)C(=O)COC(=O)C1CCC(C(C)(C)C)CC1 (stereo not given)	0.0
2) CCN(CCO)Cc1csc2ccc(Br)cc12	0.0

Would you mind telling me which call this test gave Oc1c(Br)cc(C2N=C(c3ccccc3Cl)NO2)cc1Br (stereo not given) ? 0.0

Would you mind telling me which call this test gave Cc1ccc(C)c2[nH]c(=O)c(CN(CC3CCCO3)C(=S)NCc3ccco3)cc12 (stereo not given) ? 0.0

Would you mind telling me which call this test gave COC(=O)c1cc(N2CCN(C)CC2)nc2ccccc12 ? 0.0

Would you mind telling me which call this test gave S=c1[nH]nc(-c2cc3c(s2)-c2ccccc2CC3)o1 ? 0.0

Would you mind telling me which call this test gave O=[N+]([O-])c1ccc(CN2CCN(Cc3c[nH]c4ccccc34)CC2)cc1 ? 0.0

Would you mind telling me which call this test gave CCCn1c(NCc2ccc(C)o2)nc2ccccc21 ? 0.0

Would you mind telling me which call this test gave CC1(C)Cc2nc3oc4c(=O)n(CC(=O)Nc5ccccc5)cnc4c3cc2CO1 ? 0.0

Would you mind telling me which call this test gave O=C1CC(NS(=O)(=O)c2cccs2)CN1c1ccccc1 (stereo not given) ? 0.0

Would you mind telling me which call this test gave Cc1ccc(-n2c(N)cc(=O)nc2SCC(=O)N2CCN(c3ccccc3)CC2)cc1 ? 0.0

* * *

- measured target: Short transient receptor potential channel 4 (Mus musculus)
- assay explanation: blockers of DAMGO-evoked TRPC4 calcium flux – cell-based, second round, Fluo4, HEK293 TRPC4beta/mu-opioid, 1 µM, confirmation (AID 2637)
- stated conditions: at 1 µM
Active and inactive are the calls of the source.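 How the source made its calls: active means calcium signal ratio cut to more than 3 SD under the fully stimulated control mean yet still positive, in both repeats and the primary screen; inactive means the rest.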
Choose the fitting class; nothing outside 1 (yes) (active), 0 (no) (inactive) is accepted.

Record excerpt, results attached:
1. CCN(CC)C(=O)C1CCCN(Cc2cccc(Oc3ccccc3)c2)C1 (configuration not stated)	1 (yes)
2. COCCn1nnnc1C(c1cc2ccc(OC)cc2[nH]c1=O)N1CCN(C2CCCCC2)CC1 (configuration not stated)	0 (no)
3. Cc1ccc(CN(C(=O)c2cc(=O)c3cc(Cl)c(C)cc3o2)C2CCS(=O)(=O)C2)cc1 (configuration not stated)	0 (no)
4. CCCC(=O)N/C(N)=N/c1nc(C)c2ccccc2n1	0 (no)
5. CCc1ccc(Nc2n[n+](-c3ccccc3)c(/C=C/c3ccccc3)s2)cc1	0 (no)

Would you mind telling me which call this test gave CCCN1CN(Cc2ccco2)c2nc3ccccc3n2C1 ? 1 (yes)

Would you mind telling me which call this test gave CC1Oc2ccccc2C=C1/C=N/Nc1ccc(C(=O)O)cc1 (configuration not stated) ? 1 (yes)

Would you mind telling me which call this test gave CCc1cc2c3c(c(=O)oc2cc1OCC(=O)OC)CCCC3 ? 0 (no)

Would you mind telling me which call this test gave CC(=O)c1ccc(N2CCN(C(=O)CCS(=O)(=O)c3ccc4c(c3)NC(=O)CS4)CC2)cc1 ? 0 (no)

Would you mind telling me which call this test gave CCOC(=O)c1c(NC(=O)C2CC(Cl)=CCC2C(=O)O)sc2c1CCCCC2 (configuration not stated) ? 1 (yes)

Would you mind telling me which call this test gave NC(=NC1CCCCC1)c1ccc(Cl)cc1 ? 1 (yes)

Would you mind telling me which call this test gave CC(=O)Nc1ccc(S(=O)(=O)N2CCN(CCCOc3cc(C)ccc3C)CC2)cc1 ? 0 (no)

* * *

- System: TRPC4 (mouse), co-expressed with 5HT1a in HEK293
- assay explanation: enhancement of serotonin-evoked TRPC4 response – cell-based, second counter screen, HEK293 TRPC4/5HT1a, Fluo-4, counter-screen for TRPC4 potentiator project, confirmation (AID 434979)
- stated conditions: Fluo-4 calcium flux, at 10 µM, serotonin added at its EC20 dose; stronger effect = higher value
Calls of active or inactive are those of the source.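 How the source made its calls: active means signal rise over 3 SD above mean of control wells given weak agonist, in both repeats and first screen; inactive means the rest.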
measured endpoint: potentiation

Examples from the recorded data:
1) c1ccn2cc(C34CC5CC(CC(C5)C3)C4)nc2c1	inactive
2) CCOC(=O)c1c(C)n(-c2ccc(C)cc2)c2ccc(OCC(O)CNCC3CCCO3)cc12 (stereo unspecified)	24.6% (active)
3) COCCn1c(SCc2ccc(OC)c(F)c2)nc2ccccc2c1=O	inactive
4) O=[N+]([O-])c1ccc(CN2CCN(c3nc4ccccc4s3)CC2)cc1	17.5% (active)
5) O=C(NC(=S)NNC(=O)c1ccccc1[N+](=O)[O-])c1ccc(Br)cc1	inactive
6) Cc1ccc(C2(CCNC(C)c3cccs3)CCOC(C(C)C)C2)cc1 (stereo unspecified)	inactive
7) CN(C)CCCN(C(=O)c1ccc(S(=O)(=O)N2CCCCCC2)cc1)c1nc2c(F)cc(F)cc2s1	inactive
8) Cc1ccc(C2N(c3cccc(Cl)c3)C(=O)C3CCCN32)o1 (stereo unspecified)	13.4% (active)
9) CCOC(=O)C1CCN(c2nc3ccccc3nc2C(C#N)C(=O)OCCOC)CC1 (stereo unspecified)	inactive
10) O=C(CSc1nnc(-c2ccccc2)o1)c1ccc2c(c1)OCCO2	inactive

# lookup: potentiation of C=CCOc1ccc(Br)cc1CNC(C)(C)CO inactive

# lookup: potentiation of O=C(N/N=C/c1ccco1)C1COc2ccccc2O1 (stereo unspecified) inactive

# lookup: potentiation of Cc1ccc(NC(=O)CNc2ccccc2CN(C)C2CCCCC2)cc1 inactive

# lookup: potentiation of O=C1CCSc2ccc(Cl)cc2N1Cc1ccc(Cl)cc1 inactive

# lookup: potentiation of c1ccc(-c2nc(NCc3ccco3)c3ccccc3n2)nc1 inactive

# lookup: potentiation of CC(C)Cc1nc(N2CCN(C(=O)C(C)C)CC2)c(C#N)c2c1CCC2 inactive

* * *

- measured target: Short transient receptor potential channel 4 (Mus musculus)
- assay explanation: blockers of DAMGO-evoked TRPC4 calcium flux – cell-based, Fluo4, HEK293 TRPC4beta/mu-opioid, confirmation (AID 2636)
- stated conditions: at 10 µM
The source made the active and inactive calls.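 The calls were made as follows: active = calcium signal cut by more than 3 SD below the full-agonist control yet still positive, in both repeats and the earlier primary screen; inactive = the rest.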
Choose the fitting class; nothing outside active, inactive is accepted.

Record excerpt, results attached:
1) COc1cc2c(cc1OC)C(C)N(CCc1ccc(Cl)cc1)CC2 (stereo not given)	active
2) COc1cc(NC(=O)CSc2ncnc3sc4c(c23)CCC(C)C4)c(C(=O)O)cc1OC (stereo not given)	active

Kindly review the next molecule as well.
Would you mind telling me which call this test gave c1ccc(Cn2c(CN3CCCC3)nc3ccccc32)cc1 ? active

* * *

- measured target: Short transient receptor potential channel 4 (Mus musculus) (UniProt Q9QUQ5)
- Sequence (Q9QUQ5 whole entry, looked up): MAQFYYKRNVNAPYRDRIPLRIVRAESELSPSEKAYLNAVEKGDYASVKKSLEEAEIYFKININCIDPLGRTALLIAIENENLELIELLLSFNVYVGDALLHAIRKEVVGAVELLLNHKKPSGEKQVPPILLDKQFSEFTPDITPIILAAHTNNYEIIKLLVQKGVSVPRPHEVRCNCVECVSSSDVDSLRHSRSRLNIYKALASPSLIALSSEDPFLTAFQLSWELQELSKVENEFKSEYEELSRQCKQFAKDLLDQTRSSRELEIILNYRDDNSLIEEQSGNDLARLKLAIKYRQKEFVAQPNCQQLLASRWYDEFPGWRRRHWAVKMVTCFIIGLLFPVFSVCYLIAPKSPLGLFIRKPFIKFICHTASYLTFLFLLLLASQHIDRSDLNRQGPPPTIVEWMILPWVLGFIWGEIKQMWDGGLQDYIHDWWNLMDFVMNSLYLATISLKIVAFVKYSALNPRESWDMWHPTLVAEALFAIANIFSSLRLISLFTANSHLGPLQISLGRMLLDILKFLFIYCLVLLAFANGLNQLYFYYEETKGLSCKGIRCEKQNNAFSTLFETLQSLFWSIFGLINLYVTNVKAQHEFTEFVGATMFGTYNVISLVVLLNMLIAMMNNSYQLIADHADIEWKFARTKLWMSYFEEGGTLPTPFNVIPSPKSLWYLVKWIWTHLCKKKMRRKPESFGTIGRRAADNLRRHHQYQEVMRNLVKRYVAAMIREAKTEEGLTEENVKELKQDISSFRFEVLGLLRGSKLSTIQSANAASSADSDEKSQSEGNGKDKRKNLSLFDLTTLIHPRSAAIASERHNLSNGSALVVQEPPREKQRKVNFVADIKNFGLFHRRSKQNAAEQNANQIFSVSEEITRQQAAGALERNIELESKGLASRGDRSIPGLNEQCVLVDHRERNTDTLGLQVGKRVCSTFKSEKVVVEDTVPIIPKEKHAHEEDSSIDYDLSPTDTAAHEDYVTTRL
- assay explanation: calcium flux activators in TRPC4/5HT1a cells, counter-screen for TRPC4 activator project, cell-based, second counter screen, HEK293 TRPC4/5HT1a, Fluo-4 (AID 434977)
- stated conditions: Fluo-4 calcium flux, at 10 µM
Active and inactive are the calls of the source.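 The calls were made as follows: active = calcium signal rise above buffer-control mean plus 5 SD in both duplicates, and also a hit in the primary screen; inactive = the rest.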
Choose the fitting class; nothing outside true (1) = active, false (0) = inactive is accepted.

Would you mind telling me which call this test gave CN1C2C=C(N(CCc3ccccc3)C(=O)c3ccc(Cl)cc3)CC1CC2 (centres undefined) ? false (0)

Would you mind telling me which call this test gave CC1=CC(=O)C(C(C)C)=C/C1=N/OS(=O)(=O)c1ccccc1 ? false (0)

Would you mind telling me which call this test gave Cc1ccc(C)c(N2CCN(CCCNC(=O)CCn3c(=O)c4cccn4c4cccnc43)CC2)c1 ? false (0)

Would you mind telling me which call this test gave O=C(Nc1nc2c(s1)CN(Cc1ccccc1)CC2)c1c(F)cccc1F ? false (0)

Would you mind telling me which call this test gave C=CCn1c(SCCN2CCCC2)nc2c([nH]c3ccccc32)c1=O ? false (0)

Would you mind telling me which call this test gave COc1ccc2nc(NCc3ccccc3)[nH]c2c1 ? false (0)

Would you mind telling me which call this test gave CN(C)CCOc1cc(Cl)cc(Cl)c1 ? false (0)

Would you mind telling me which call this test gave C=CCn1c(SCCN2CCOCC2)nc2c1c(=O)[nH]c(=O)n2C ? false (0)

Would you mind telling me which call this test gave CCc1ccc(C(=O)c2cnc3ccc(OC)cc3c2N2CCN(CC)CC2)cc1 ? false (0)

Would you mind telling me which call this test gave Cc1cc([N+](=O)[O-])ccc1NCc1ccco1 ? false (0)

Would you mind telling me which call this test gave COc1ccc(CCNC(=O)C2CCN(C(=O)c3ccc(C(C)(C)C)cc3)CC2)cc1 ? false (0)

Would you mind telling me which call this test gave CN1CCCN(Cc2cccc3ccccc23)CC1 ? false (0)

Would you mind telling me which call this test gave O=C(c1ccc([N+](=O)[O-])s1)N1CCCc2ccccc21 ? false (0)

Would you mind telling me which call this test gave N=c1n(Cc2ccccc2)c2ccccc2n1CC(O)COc1ccccc1 (centres undefined) ? false (0)

Would you mind telling me which call this test gave Cc1cc(C)c(C)c(S(=O)(=O)NCc2ccco2)c1C ? false (0)

Would you mind telling me which call this test gave Cc1ccc(S(=O)(=O)N2CCC(N3CCN(C)CC3)CC2)cc1Cl ? false (0)

Would you mind telling me which call this test gave CCCCNc1nc(-c2ccccc2)c(C(=O)OCC)cc1C#N ? false (0)
